target: Adenosine receptor A2a (Homo sapiens); assay: Displacement of [3H]ZM241385 from human adenosine A2A receptor expressed in HEK293 cell membranes at 1 uM after 2 hrs by beta scintillation counting analysis relative to control
Property Name: inhibition (%)
Report the value in % with no unit label.

Recorded inhibition (compound CC(=O)Nc1ccc(-c2nc(SCc3csc(-c4ccc(Cl)cc4)n3)nc(N)c2C#N)cc1 ): 44

What the record says about N#Cc1c(N)nc(SCc2cscn2)nc1-c1ccc2c(c1)OCO2 : inhibition is 31

So, N#Cc1c(N)nc(SCc2csc(-c3ccc(Cl)cc3)n2)nc1-c1ccc2c(c1)OCO2 ? Its inhibition was 4.5

Looking up N#Cc1c(N)nc(SCc2csc(-c3ccccc3)n2)nc1-c1ccc2c(c1)OCO2 , I see its inhibition listed as -2

###

Task for the reader: assign each of the following molecules its reported Ratio.
molecular target: UniProtKB P30542; assay: Ratio for displacement of [3H]DPCPX from human adenosine A1 receptor expressed in CHO cell membranes at 10 times Ki after 15 mins by dual-point competition association assay to ratio for displacement of [3H]DPCPX from human adenosine A1 receptor expressed in CHO cell membranes 10 times Ki after 120 mins by dual-point competition association assay
Sequence (P30542 whole entry): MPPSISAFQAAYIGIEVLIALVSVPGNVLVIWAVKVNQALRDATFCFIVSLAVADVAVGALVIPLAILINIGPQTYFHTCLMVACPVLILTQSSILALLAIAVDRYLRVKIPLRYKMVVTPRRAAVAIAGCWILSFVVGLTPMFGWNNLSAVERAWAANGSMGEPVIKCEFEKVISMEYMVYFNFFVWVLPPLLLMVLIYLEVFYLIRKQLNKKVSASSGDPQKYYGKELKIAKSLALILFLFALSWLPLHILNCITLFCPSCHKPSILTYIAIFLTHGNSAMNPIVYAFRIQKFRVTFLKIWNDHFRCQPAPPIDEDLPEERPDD
Please give the numeric answer without any surrounding text.

// Ratio value for N#Cc1c(N)nc(SCc2csc(-c3ccc(C(F)(F)F)cc3)n2)nc1-c1ccc2c(c1)OCO2 : 1.2

Noted for N#Cc1c(N)nc(SCc2coc(-c3ccc(F)cc3)n2)nc1-c1ccc2c(c1)OCO2 : its Ratio reads 1.01

The recorded Ratio for N#Cc1c(N)nc(SCc2csc(-c3ccc([N+](=O)[O-])cc3)n2)nc1-c1ccc2c(c1)OCO2 is 0.95

Just so you know, measured Ratio for N#Cc1c(N)nc(SCc2csc(-c3cccc(F)c3)n2)nc1-c1ccc2c(c1)OCO2 came out at 1.24

Measured Ratio, Cc1ccc(-c2nc(CSc3nc(N)c(C#N)c(-c4ccc5c(c4)OCO5)n3)cs2)cc1 : 1.15

Please fill in: Ratio reported for N#Cc1c(N)nc(SCc2cscn2)nc1-c1ccc2c(c1)OCO2 = 0.93

get_value(item= N#Cc1c(N)nc(SCc2csc(-c3ccc(Cl)cc3)n2)nc1-c1ccc2c(c1)OCO2 , readout=Ratio) returns 1.64

Notebook: N#Cc1c(N)nc(SCc2coc(-c3ccc(Cl)cc3)n2)nc1-c1ccc2c(c1)OCO2 , Ratio read as 1.17

Just so you know, measured Ratio for N#Cc1c(N)nc(SCc2csc(-c3ccc(I)cc3)n2)nc1-c1ccc2c(c1)OCO2 came out at 1.4

Just so you know, measured Ratio for N#Cc1c(N)nc(SCc2csc(-c3ccccc3)n2)nc1-c1ccc2c(c1)OCO2 came out at 1.1

The recorded Ratio for entry N#Cc1c(N)nc(SCc2csc(C3CCCCC3)n2)nc1-c1ccc2c(c1)OCO2 equals 1.17
